Give LD50 at 192 h for every item shown.
# Method Summary: Toxicity in ICR mouse assessed as median lethal dose administered as single IP dose measured upto 8 days
# Test Settings: in vivo, time < 8 day
Give bare numbers, in mg/kg.

Field: example entries. Status: answers known.
- Smiles Structure: "Nc1nc(N)c2c(ccc3c2ccn3Cc2cccc3scnc23)n1"
  LD50 at 192 h, mg/kg: 88.9
- Smiles Structure: "Nc1nc(N)c2c(ccc3c2ccn3Cc2ccc(-c3ccccc3)cc2)n1"
  LD50 at 192 h, mg/kg: 154

Alright, here's another compound for you.
Qu. Could you share which LD50 at 192 h value was measured for Nc1nc(N)c2c(ccc3c2ccn3Cc2ccc3scnc3c2)n1 ?
Ans. 283

###

Give MIC for every item shown.
# Tested on: Klebsiella pneumoniae
# Method Summary: Antibacterial activity against Klebsiella pneumoniae ATCC 700603 assessed as reduction in microbial growth incubated for 16 to 18 hrs by CLSI based broth dilution method
# Type: functional
# Test Settings: time 16-18 hrs
One number for each entry, in µg/mL.

Field: example entries. Status: answers known.
- Smiles Structure: "Nc1nc(N)c2c(ccc3c2ccn3Cc2cccc3cccnc23)n1"
  MIC (µg/mL): 16
- Smiles Structure: "Nc1nc(N)c2c(ccc3c2ccn3Cc2cccc3ccccc23)n1"
  MIC (µg/mL): 4
- Smiles Structure: "COc1cc(Cc2cnc(N)nc2N)cc(OC)c1OC"
  MIC (µg/mL): 4

Take each entry in turn and give its MIC.
1. Nc1nc(N)c2c(ccc3c2ccn3Cc2nc3ccccc3s2)n1
2. Nc1nc(N)c2c(ccc3c2ccn3Cc2ccc3ccccc3n2)n1

Ans.
[2, 2]

###

Give MIC for every item shown.
# Tested on: Staphylococcus aureus
# Method Summary: Antibacterial activity against methicillin-resistant Staphylococcus aureus ATCC 43300 incubated for 16 to 18 hrs by CLSI based broth dilution method
# Format: functional
# Test Settings: time 16-18 hrs

- Compound: "Nc1nc(N)c2c(ccc3c2ccn3Cc2cccc3ccccc23)n1"
  Measurement: "0.06 µg/mL"
- Compound: "Nc1nc(N)c2c(ccc3c2ccn3Cc2ccc(Br)c3ccccc23)n1"
  Measurement: "0.125 µg/mL"
- Compound: "Nc1nc(N)c2c(ccc3c2ccn3Cc2cccc3sc(N)nc23)n1"
  Measurement: "0.125 µg/mL"
- Compound: "Nc1nc(N)c2c(ccc3c2ccn3Cc2ccc3ccccc3c2)n1"
  Measurement: "0.25 µg/mL"
- Compound: "Nc1nc(N)c2c(ccc3c2ccn3Cc2nc3ccccc3o2)n1"
  Measurement: "0.25 µg/mL"

Take each entry in turn and give its MIC.
1. COC(=O)c1ccc(Cn2ccc3c4c(N)nc(N)nc4ccc32)c2ccccc12
2. Nc1nc(N)c2c(ccc3c2ccn3Cc2cccc3scnc23)n1
3. COc1cc(Cc2cnc(N)nc2N)c2c(c1OC)OC(C1CC1)C=C2 (stereo not drawn)
4. COC(=O)c1ccc2nc(Cn3ccc4c5c(N)nc(N)nc5ccc43)ccc2c1
5. Nc1nc(N)c2c(ccc3c2ccn3Cc2ccc3scnc3c2)n1
6. Nc1nc(N)c2c(ccc3c2ccn3Cc2ccc3ocnc3c2)n1

Ans.
0.004 µg/mL
0.004 µg/mL
0.06 µg/mL
0.25 µg/mL
0.016 µg/mL
2 µg/mL

Take each entry in turn and give its MIC.
1. Nc1nc(N)c2c(ccc3c2ccn3Cc2ccc3sc(N)nc3c2)n1
2. Nc1nc(N)c2c(ccc3c2ccn3Cc2cccc3cccnc23)n1
3. COc1cc(Cc2cnc(N)nc2N)cc(OC)c1OC
4. Nc1nc(N)c2c(ccc3c2ccn3Cc2ccc3occc3c2)n1
5. Nc1nc(N)c2c(ccc3c2ccn3Cc2ccc3cc(C(=O)O)ccc3n2)n1

Ans.
1: 8 µg/mL; 2: ≤ 0.03 µg/mL; 3: 0.5 µg/mL; 4: 0.004 µg/mL; 5: 32 µg/mL

###

# System: Klebsiella pneumoniae
# Method Summary: Antibacterial activity against Klebsiella pneumoniae 15-1 assessed as reduction in microbial growth incubated for 16 to 18 hrs by CLSI based broth dilution method
# Format: functional
# Test Settings: time 16-18 hrs
Give MIC for every item shown.
Numbers only, in µg/mL.

- Smiles Structure: "Nc1nc(N)c2c(ccc3c2ccn3Cc2cccc3cccnc23)n1"
  Unit Label: "µg/mL"
  MIC: 16
- Smiles Structure: "Nc1nc(N)c2c(ccc3c2ccn3Cc2ccc3ccccc3n2)n1"
  Unit Label: "µg/mL"
  MIC: 4
- Smiles Structure: "Nc1nc(N)c2c(ccc3c2ccn3Cc2cccc3ccccc23)n1"
  Unit Label: "µg/mL"
  MIC: 4
- Smiles Structure: "COc1cc(Cc2cnc(N)nc2N)cc(OC)c1OC"
  Unit Label: "µg/mL"
  MIC: 8

Alright, here's another compound for you.
Qu. Record lookup: for Klebsiella pneumoniae, what MIC belongs to Nc1nc(N)c2c(ccc3c2ccn3Cc2nc3ccccc3s2)n1 ?
Ans. 2

###

# Method Summary: Stability in mouse plasma assessed as parent compound remaining at 1 ug/ml measured after 10 mins by LC-MS/MS analysis
# Format: ADME, cell-free
# Test Settings: at 1 µg/mL, read-out: Stability
Give remaining at 10 min, 1 ug/ml for every item shown.
One number for each entry, in %.

- Smiles Structure: "Cc1cc2c3c(N)nc(N)nc3ccc2n1Cc1nc2ccccc2s1"
  Reported Metric: "remaining at 10 min, 1 ug/ml"
  Unit Label: "%"
  Measurement: 99.6

Alright, here's another compound for you.
Qu. Could you share which remaining at 10 min, 1 ug/ml value was measured for Nc1nc(N)c2c(ccc3c2ccn3Cc2ccc3scnc3c2)n1 ?
Ans. 96.2

###

# Method Summary: Metabolic stability in mouse liver microsomes assessed as half life at 1 uM measured upto 60 mins in presence of NADPH by LC-MS/MS analysis
# Format: ADME, Microsome
Reported Metric: half-life at 1 µM (min)
One number for each entry, in min.

- Smiles Structure: "Cc1cc2c3c(N)nc(N)nc3ccc2n1Cc1nc2ccccc2s1"
  Unit Label: "min"
  Measurement: 82

Qu. Could you share which half-life at 1 µM value was measured for Nc1nc(N)c2c(ccc3c2ccn3Cc2ccc3scnc3c2)n1 ?
Ans. 12.2

###

# Target Or System: Dihydrofolate reductase (Homo sapiens) (UniProt P00374)
# Sequence (P00374 whole entry): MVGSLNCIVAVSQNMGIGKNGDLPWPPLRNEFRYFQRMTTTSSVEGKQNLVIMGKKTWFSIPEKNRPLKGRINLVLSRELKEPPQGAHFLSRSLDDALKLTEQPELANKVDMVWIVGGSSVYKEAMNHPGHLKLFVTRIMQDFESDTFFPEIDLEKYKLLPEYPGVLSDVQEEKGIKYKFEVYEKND
# Method Summary: Inhibition of human DHFR at 1 uM incubated for 10 mins in presence of NADPH by colorimetry based analysis relative to control
Give inhibition for every item shown.
Answers are plain numbers, in %.

- Smiles Structure: "Nc1nc(N)c2c(ccc3c2ccn3Cc2ccc3occc3c2)n1"
  Reported Metric: "inhibition"
  Measurement: 64.5
- Smiles Structure: "Nc1nc(N)c2c(ccc3c2ccn3Cc2ccc3ncsc3c2)n1"
  Reported Metric: "inhibition"
  Measurement: 80.6
- Smiles Structure: "Nc1nc(N)c2c(ccc3c2ccn3Cc2ccc3cc(C(=O)O)ccc3n2)n1"
  Reported Metric: "inhibition"
  Measurement: 77.4

Take each entry in turn and give its inhibition.
1. Nc1nc(N)c2c(ccc3c2ccn3Cc2cccc3cccnc23)n1
2. Nc1nc(N)c2c(ccc3c2ccn3Cc2ccc3ccccc3n2)n1
3. Nc1nc(N)c2c(ccc3c2ccn3Cc2ccc3sccc3c2)n1
4. COc1ccc2nc(Cn3ccc4c5c(N)nc(N)nc5ccc43)sc2c1
5. CCOC(=O)c1ccc(Cn2ccc3c4c(N)nc(N)nc4ccc32)c2ccccc12
6. Nc1nc(N)c2c(ccc3c2ccn3Cc2nc3ccccc3s2)n1
7. Cc1cc2c3c(N)nc(N)nc3ccc2n1Cc1cccc2scnc12

Ans.
1: 38.7; 2: 74.1; 3: 87; 4: 38.7; 5: 70.9; 6: 96; 7: 99.4

Qu. Could you share which inhibition value was measured for Nc1nc(N)c2c(ccc3c2ccn3Cc2cc3ccccc3o2)n1 ?
Ans. 29.1

###

Give MIC for every item shown.
# System: Staphylococcus aureus
# Method Summary: Antibacterial activity against methicillin-resistant Staphylococcus aureus ATCC 43300 incubated for 16 to 18 hrs in presence of human plasma by CLSI based broth dilution method
# Format: functional
# Test Settings: time 16-18 hrs
Numbers only, in µg/mL.

- Smiles Structure: "Nc1nc(N)c2c(ccc3c2ccn3Cc2ccc3scnc3c2)n1"
  MIC, µg/mL: 0.5
- Smiles Structure: "COc1cc(Cc2cnc(N)nc2N)cc(OC)c1OC"
  MIC, µg/mL: 0.5

Take each entry in turn and give its MIC.
1. Nc1nc(N)c2c(ccc3c2ccn3Cc2nc3ccccc3s2)n1
2. Nc1nc(N)c2c(ccc3c2ccn3Cc2cccc3scnc23)n1

Ans.
1
0.25

###

# Test system: Staphylococcus aureus
# Method Summary: Antibacterial activity against methicillin-resistant Staphylococcus aureus ATCC 43300 incubated for 16 to 18 hrs by CLSI based broth dilution method
# Format: functional
# Test Settings: time 16-18 hrs
Simple rule here: MIC less than 0.1 µg/mL is label 1, otherwise label 0.

Some solved cases for reference:
- Smiles Structure: "Nc1nc(N)c2c(ccc3c2ccn3Cc2ccc3sccc3c2)n1"
  Class Assignment: "label 1"
- Smiles Structure: "Nc1nc(N)c2c(ccc3c2ccn3Cc2cc3ccccc3o2)n1"
  Class Assignment: "label 0"
- Smiles Structure: "Nc1nc(N)c2c(ccc3c2ccn3Cc2nc3ccc(C(=O)O)cc3s2)n1"
  Class Assignment: "label 0"
- Smiles Structure: "Nc1nc(N)c2c(ccc3c2ccn3Cc2nc3ccccc3s2)n1"
  Class Assignment: "label 1"
- Smiles Structure: "Nc1nc(N)c2c(ccc3c2cc(-c2ccccc2)n3Cc2nc3ccccc3s2)n1"
  Class Assignment: "label 0"

Qu. Decide: MIC of Nc1nc(N)c2c(ccc3c2ccn3Cc2cc3ccccc3s2)n1 strictly below 0.1 µg/mL?
Ans. label 0

Qu. Another molecule to look at: Nc1nc(N)c2c(ccc3c2ccn3Cc2ccc(C(=O)O)c3ccccc23)n1
Ans. label 0

Qu. Another molecule to look at: Cc1cc2c3c(N)nc(N)nc3ccc2n1Cc1ccc(-c2ccccc2)cc1
Ans. label 0
